Recorded apparent KD of MS2 coat protein for the following sequences
Tested on: MS2 coat protein
Experiment: apparent KD of MS2 coat protein; higher = weaker reporter binding
Conditions: Eterna round: R107; input ligand: theophylline 2 mM
readout: apparent KD of MS2 coat protein (nM)

>>> endpoint_result("AUAUAUACAUGAGGAUCACCCAUGUUAUUUCGAGGACCGGUACGGCCGCCACUCGAUAGAGUGGAAGUAACAUUUGUUAGAUGAU [JR_SSTryptoA_Sub013]")
16.3
>>> endpoint_result("UCACAUGAGGAUCACCCAUGUACAGGCGAUACCAGCCGUACAUUGGGCCCUUGGCAGCGCACCGAGGACUUUUUAAGCAUCUCGG [Diatbeen]")
282
>>> endpoint_result("CUAUAUUAUAGAAGGAGCGUCGAAAAUGGGUAAACAUGAGGAUCACCCAUGUAAAGGGAACGACAGGUAGGUCGCUAUAAUAUAG [AstromonsSSArgB#13]")
252
>>> endpoint_result("ACGAUAGGACUUGAGGAUCACCCAAGUGAUACCAGCCUGGAAACAGGCCCUUGGCAGCACUAAUACUCCAAUAACCUAUCGAAUA [TheoAX 14 #MicroSwitchBubble #AlternativeMS2]")
387
>>> endpoint_result("AUGACUCACAAAGAAGAUAAAAUGGGUGAACGAGGACCGGUACGGCCGCCACUCGGACAUGAGGAUCACCCAUGUCCAUGUGCAA [#24 Exclusion Tryptophan A]")
21
>>> endpoint_result("AUCUUUGGCGAUCUGGGAAAACCAGAUCGACGAGGACCGGUACGGCCGCCACUCGUGUAUAAUAUACAUGAGGAUCACCCAUGUA [#18 Tryptophan A Same State]")
64.7
